# Test system: HT-29
# Test name: NCI tumour cell line growth inhibition, 48 h
Calls of active or inactive are those of the source. No stated cut-off is given here; in the data, active = GI50 up to about 1.1 µM and inactive = higher. Residues, ends and D or L forms follow the SMILES beside them. *: point of attachment. Ethyl(2-NMe3+) = C[N+](C)(C)CC*; Boc = CC(C)(C)OC(=O)*
Observed property: GI50

// solved cases for GI50 follow
[
  {
    "Molecule": "O=Cc1c(Cn2ccnc2)c2cc([N+](=O)[O-])ccc2n1Cc1ccccc1",
    "GI50": "> 100 µM (inactive)"
  },
  {
    "Molecule": "O=c1oc2ccc3ccccc3c2cc1-c1nc2ccc([N+](=O)[O-])cc2o1",
    "GI50": "> 42.7 µM (inactive)"
  },
  {
    "Molecule": "CC(NC1CCCC[C@H]1O)c1ccccc1 (stereo partly specified)",
    "GI50": "> 100 µM (inactive)"
  },
  {
    "Molecule": "C[C@]12CC[C@H]3[C@@H](CC=C4C[C@@H](N5CCCC5)CC[C@@]43C)[C@@H]1C[C@H](N1CCOCC1)[C@@H]2O",
    "GI50": "44.5 µM (inactive)"
  },
  {
    "Molecule": "C=C(Br)C(C)(Cl)CCC(Br)C(C)(C)Br (stereo unspecified)",
    "GI50": "47.2 µM (inactive)"
  }
]

May I ask what GI50 has been recorded for CC(NC(=O)C(Cc1ccc(OCC[N+](C)(C)C)cc1)NC(=O)OC(C)(C)C)C(=O)NC(Cc1ccccc1)C(=O)NCC(N)=O (stereo unspecified) (Boc-Y(Ethyl(2-NMe3+))AFG-NH2; configuration not given here) ?
> 100 µM (inactive)

May I ask what GI50 has been recorded for "Cc1nc(N2N=C(c3ccc(Cl)cc3)CCC2=O)sc1[N+](=O)[O-]" ?
> 100 µM (inactive)

May I ask what GI50 has been recorded for "N#CSc1ccc(S(N)(=O)=O)cc1" ?
82 µM (inactive)

May I ask what GI50 has been recorded for "Cn1c(=O)sc2cc(C(=S)N3CCN(c4ccccc4)CC3)ccc21" ?
> 100 µM (inactive)

May I ask what GI50 has been recorded for Cc1cn(C2CCN(CC3COC(C)(C)O3)O2)c(=O)[nH]c1=O (stereo unspecified) ?
> 100 µM (inactive)

May I ask what GI50 has been recorded for "CN(C)C(=O)c1ccc([N+](=O)[O-])cc1" ?
> 100 µM (inactive)

###

# Tested on: NCI-H23
# Test name: NCI tumour cell line growth inhibition, 48 h
Activity calls are given as the source filed them. Cut-off read from the data, not from the text of the source: active = GI50 up to about 1.1 µM and inactive = higher.
Please answer using one outcome listed in Yes (active), No (inactive)

[
  {
    "Molecule": "c1ccc(-c2c[nH]c(SC(c3ccccc3)c3ccccc3)n2)cc1",
    "Answer label": "No"
  },
  {
    "Molecule": "Cc1ccc(Nc2nnc3n2S(=O)(=O)c2cc(C)c(Cl)cc2S3)cc1",
    "Answer label": "No"
  },
  {
    "Molecule": "O=C1/C(=C\\c2cccc(Oc3ccccc3)c2)SC(c2ccccc2)N1Cc1ccccc1 (stereo unspecified)",
    "Answer label": "No"
  },
  {
    "Molecule": "O=C(Nc1ccc(Cl)cc1)C(=O)C(C(=O)c1ccccc1-c1ccccc1)C1OC(=O)c2ccccc21 (stereo unspecified)",
    "Answer label": "No"
  },
  {
    "Molecule": "COC(=O)/C=C1/OC(c2ccccc2)=C(C)C1=O",
    "Answer label": "No"
  }
]

Record lookup: outcome of this test for Nc1ccn(C2OC(CO)C(O)C2(F)F)c(=O)n1 (stereo unspecified) ?
Yes

Record lookup: outcome of this test for "CCOC(=O)c1ccc(Nc2nc3cc(C(F)(F)F)ccc3nc2-c2ccccc2)cc1" ?
No

###

# Tested on: SK-OV-3
# Test name: NCI tumour cell line growth inhibition, 48 h
Activity calls are given as the source filed them. No stated cut-off is given here; in the data, active = GI50 up to about 1.1 µM and inactive = higher.
The entries below come with measured GI50 values attached.

[
  {
    "Molecule": "OC(c1cccnc1Cl)c1nc2ccccc2c2ccnc(Cl)c12 (stereo unspecified)",
    "GI50": "8.38 µM (inactive)"
  },
  {
    "Molecule": "CC(NC1CCCC[C@H]1O)c1ccccc1 (stereo partly specified)",
    "GI50": "> 100 µM (inactive)"
  },
  {
    "Molecule": "CCCc1[nH]nc(C(N)=O)c1/N=N/N(C)C",
    "GI50": "59.7 µM (inactive)"
  }
]

Can you look up GI50 on SK-OV-3 for CCCCCCCCCCCCCCCC(=O)OCC1OC(n2cc(F)c(=O)[nH]c2=O)C(N)C(O)C1O (stereo unspecified) ?
22.4 µM (inactive)

Can you look up GI50 on SK-OV-3 for CCCCc1ccc(Nc2nc3c(ncn3C3CC(O)C(CN=[N+]=[N-])O3)c(=O)[nH]2)cc1 (stereo unspecified) ?
> 100 µM (inactive)

Can you look up GI50 on SK-OV-3 for CCOC(=O)C1=CNC(C(=O)OCC)C1c1cccn1-c1ccc(Cl)cc1[N+](=O)[O-] (stereo unspecified) ?
32.7 µM (inactive)

###

The entries below come with measured GI50 values attached.
# Test system: Malme-3M
# Test name: NCI tumour cell line growth inhibition, 48 h
The source made the active and inactive calls. No stated cut-off is given here; in the data, active = GI50 up to about 1.1 µM and inactive = higher.

// solved cases for GI50 follow
[
  {
    "Compound": "CCOC1NC(=O)c2ccccc21 (configuration not stated)",
    "Assay result": "> 100 µM (inactive)"
  },
  {
    "Compound": "CO/C(=N\\N=C\\c1ccc(C(F)(F)F)cc1)c1ccncc1",
    "Assay result": "> 10 µM (inactive)"
  },
  {
    "Compound": "COCCCNC(=O)C1C(=O)N(CCCOC)C(=O)/C1=N\\N (configuration not stated)",
    "Assay result": "> 100 µM (inactive)"
  },
  {
    "Compound": "NCC(Cc1ccccc1)P(=O)(O)O (configuration not stated)",
    "Assay result": "> 100 µM (inactive)"
  },
  {
    "Compound": "O=C(Nc1cccc(C(F)(F)F)c1)C(=O)C1NC(=S)NC1=O (configuration not stated)",
    "Assay result": "> 100 µM (inactive)"
  }
]

May I ask what GI50 has been recorded for Nc1nc2c3c(ncn3CC(O)CO2)n1 (configuration not stated) ?
> 100 µM (inactive)

May I ask what GI50 has been recorded for C=C1CC(O)C2C(=C)C(=O)OC2C2C(C)C(=O)CC12 (configuration not stated) ?
12 µM (inactive)

May I ask what GI50 has been recorded for "CC(C)(C)c1ccc(-c2nc3ccc([N+](=O)[O-])cc3c(=O)o2)cc1" ?
28.9 µM (inactive)

May I ask what GI50 has been recorded for "C(=C\c1ccccc1)/C=N/c1nc2cc3sc(/N=C/C=C/c4ccccc4)nc3cc2s1" ?
> 100 µM (inactive)

May I ask what GI50 has been recorded for CC(NC1CCCC[C@H]1O)c1ccccc1 (some centres not stated) ?
> 100 µM (inactive)

May I ask what GI50 has been recorded for O=C(NC(Cc1ccc(I)cc1)C(=O)O)c1ccc(Cl)cc1 (configuration not stated) ?
89.7 µM (inactive)

May I ask what GI50 has been recorded for COc1cc(C2S/C(=C/c3ccccc3)C(=O)N2c2cccc(NC(C)=O)c2)cc(OC)c1OC (configuration not stated) ?
23.4 µM (inactive)

###

# System: SNB-19
# Test name: NCI tumour cell line growth inhibition, 48 h
The source made the active and inactive calls. No stated cut-off is given here; in the data, active = GI50 up to about 1.1 µM and inactive = higher.
Please answer using one outcome listed in active, inactive

Reference set, count: 3
[
  {
    "Molecule": "c1ccc2c(c1)N=C(NC1CCCCC1)CCN2",
    "Answer label": "inactive"
  },
  {
    "Molecule": "C=C(C)[C@@H]1CC[C@]2(C(=O)OC3OC(COC4OC(CO)C(OC5OC(C)C(O)C(O)C5O)C(O)C4O)C(O)C(O)C3O)CC[C@]3(C)[C@H](CC[C@@H]4[C@@]5(C)CC[C@H](O)[C@@](C)(CO)[C@@H]5CC[C@]43C)[C@@H]12 (stereo partly specified)",
    "Answer label": "inactive"
  },
  {
    "Molecule": "N#C[BH2-][n+]1ccc(C(=O)NNCC(F)(F)F)cc1",
    "Answer label": "inactive"
  }
]

Record lookup: outcome of this test for "COc1cccc([C@H]2CC(=O)c3cc4c(cc3N2)OCO4)c1" ?
active

Record lookup: outcome of this test for "Cn1c(=O)sc2cc(C(=S)N3CCN(c4ccccc4)CC3)ccc21" ?
inactive

Record lookup: outcome of this test for "N/N=C1/C(=N/O)CCc2nonc21" ?
inactive

Record lookup: outcome of this test for "CN1C(=O)CN(NC(=O)C2=C(O)c3ccc(Br)cc3S(=O)(=O)N2)C1=S" ?
inactive

Record lookup: outcome of this test for "CN(C)/C=N/c1c2ccccc2nc2ccccc12" ?
inactive

Record lookup: outcome of this test for CN(C)CC1CCC/C(=C\c2ccc(Cl)cc2)C1=O (stereo unspecified) ?
inactive

Record lookup: outcome of this test for "O=C1Nc2ccc(Br)cc2/C1=N/c1ccc2c(c1)OCO2" ?
inactive

Record lookup: outcome of this test for "CCOC(=O)c1nnsc1NC(=O)NN" ?
inactive

Record lookup: outcome of this test for "Nc1cc(N2CCCC2)nc(=O)n1Cc1ccccc1" ?
inactive
